- test_target: human NaV 1.8 (Homo sapiens)
- assay_explanation: E-VIPR assay detecting and measuring NaV inhibition properties
- Assay type: cell-based
- cond: HEK cells expressing truncated human NaV 1.8; no human serum; read-out: IC50 in the E-VIPR Assay
pIC50: −log10 of the molar value.

>  <molecule>
COCC1(CNC(=O)[C@@H]2O[C@@](C)(C(F)(F)F)[C@@H](C)[C@H]2c2ccc(F)c(F)c2OC)CCC1

>  <pIC50>
≤ 6.00

$$$$
>  <molecule>
C[C@H]1[C@@H](c2ccc(F)c(F)c2OCCO)[C@H](C(=O)Nc2ccon2)O[C@@]1(C)C(F)(F)F

>  <pIC50>
6.00 to 7.00

$$$$
>  <molecule>
COc1c([C@H]2[C@H](C(=O)Nc3cncc(CO)n3)O[C@@](C)(C(F)(F)F)[C@H]2C)ccc(F)c1F

>  <pIC50>
6.00 to 7.00

$$$$
>  <molecule>
COc1c(C2C(C(=O)Nc3ccncn3)OC(C)(C(F)(F)F)C2C)ccc(F)c1F (single isomer, unassigned) [Compound 36]

>  <pIC50>
> 8.00

$$$$
>  <molecule>
COc1c([C@H]2[C@H](C(=O)Nc3ccnc(N4CCN[C@H](C)C4=O)c3)O[C@@](C)(C(F)(F)F)[C@H]2C)ccc(F)c1F

>  <pIC50>
7.00 to 8.00

$$$$
>  <molecule>
C[C@H]1[C@@H](c2ccc(F)c(F)c2OCCN2C[C@H]3COC[C@H]3C2)[C@H](C(=O)Nc2cc(C(N)=O)nn2C)O[C@@]1(C)C(F)(F)F

>  <pIC50>
7.00 to 8.00

$$$$

---

Collected pIC50 values appear next to each entry.
- test_target: human NaV 1.8 (Homo sapiens)
- assay_explanation: E-VIPR assay detecting and measuring NaV inhibition properties
- Assay type: cell-based
- cond: HEK cells expressing truncated human NaV 1.8; no human serum; read-out: IC50 in the E-VIPR Assay
pIC50: −log10 of the molar value.
readout_kind: pIC50

>  <compound>
COCCNCc1cc(NC(=O)C2OC(C)(C(F)(F)F)C(C)C2c2ccc(F)c(F)c2OC)ccn1 (stereo not shown) [Compound 60]

>  <readout_kind>
pIC50

>  <result>
> 8.00

$$$$
>  <compound>
COc1c([C@H]2[C@H](C(=O)Nc3ccc4nc(C(=O)N(C)C)cn4c3)O[C@@](C)(C(F)(F)F)[C@H]2C)ccc(F)c1F [Compound 261]

>  <readout_kind>
pIC50

>  <result>
7.00 to 8.00

$$$$
>  <compound>
COc1c([C@H]2[C@H](C(=O)Nc3cc(C(C)(N)CO)ncc3F)O[C@@](C)(C(F)(F)F)[C@H]2C)ccc(F)c1F (single isomer, unassigned) [Compound 360]

>  <readout_kind>
pIC50

>  <result>
> 8.00

$$$$
>  <compound>
COc1c([C@H]2[C@H](C(=O)Nc3ccnc(N4CC[C@@H](O)C4=O)c3)O[C@@](C)(C(F)(F)F)[C@H]2C)ccc(F)c1F [Compound 471]

>  <readout_kind>
pIC50

>  <result>
7.00 to 8.00

$$$$
>  <compound>
Cc1nn(C(F)F)cc1NC(=O)[C@@H]1O[C@@](C)(C(F)(F)F)[C@@H](C)[C@H]1c1ccc(F)c(F)c1CN1CCN(C)CC1 [Compound 674]

>  <readout_kind>
pIC50

>  <result>
6.00 to 7.00

$$$$
>  <compound>
C[C@H]1[C@@H](c2ccc(F)c(F)c2O[C@H]2C[C@@H](O)C2)[C@H](C(=O)Nc2cncc(C#N)c2)O[C@@]1(C)C(F)(F)F [Compound 659]

>  <readout_kind>
pIC50

>  <result>
7.00 to 8.00

$$$$
>  <compound>
CCOc1c(C2C(C(=O)Nc3ccnc(S(C)(=O)=NC)c3)OC(C)(C(F)(F)F)C2C)ccc(F)c1F (stereo not shown) [Compound 113]

>  <readout_kind>
pIC50

>  <result>
> 8.00

$$$$
>  <compound>
COc1c([C@H]2[C@H](C(=O)Nc3ccnc(C4(O)CCOC4)c3)O[C@@](C)(C(F)(F)F)[C@H]2C)ccc(F)c1F (single isomer, unassigned) [Compound 220]

>  <readout_kind>
pIC50

>  <result>
> 8.00

$$$$
>  <compound>
COc1c([C@H]2[C@H](C(=O)NC3CC(F)(F)C3)O[C@@](C)(C(F)(F)F)[C@H]2C)ccc(F)c1F [Compound 280]

>  <readout_kind>
pIC50

>  <result>
6.00 to 7.00

$$$$
>  <compound>
COCCOc1c([C@H]2[C@H](C(=O)Nc3ccnc(CCO)c3)O[C@@](C)(C(F)(F)F)[C@H]2C)ccc(F)c1F [Compound 648]

>  <readout_kind>
pIC50

>  <result>
> 8.00

$$$$
>  <compound>
C=C(CO)COc1c([C@H]2[C@H](C(=O)Nc3ccc4cnnn4c3)O[C@@](C)(C(F)(F)F)[C@H]2C)ccc(F)c1F [Compound 622]

>  <readout_kind>
pIC50

>  <result>
> 8.00

$$$$
>  <compound>
COc1c([C@H]2[C@H](C(=O)Nc3ccc(S(C)(=N)=O)nc3)O[C@@](C)(C(F)(F)F)[C@H]2C)ccc(F)c1F (single isomer, unassigned) [Compound 337]

>  <readout_kind>
pIC50

>  <result>
7.00 to 8.00

$$$$
>  <compound>
C[C@@H](CO)COc1c([C@H]2[C@H](C(=O)Nc3ccc(C(N)=O)nc3)O[C@@](C)(C(F)(F)F)[C@H]2C)ccc(F)c1F [Compound 616]

>  <readout_kind>
pIC50

>  <result>
6.00 to 7.00

$$$$

---

- test_target: human NaV 1.8 (Homo sapiens, UniProt Q9Y5Y9)
- Sequence (Q9Y5Y9 126-399 limits assumed): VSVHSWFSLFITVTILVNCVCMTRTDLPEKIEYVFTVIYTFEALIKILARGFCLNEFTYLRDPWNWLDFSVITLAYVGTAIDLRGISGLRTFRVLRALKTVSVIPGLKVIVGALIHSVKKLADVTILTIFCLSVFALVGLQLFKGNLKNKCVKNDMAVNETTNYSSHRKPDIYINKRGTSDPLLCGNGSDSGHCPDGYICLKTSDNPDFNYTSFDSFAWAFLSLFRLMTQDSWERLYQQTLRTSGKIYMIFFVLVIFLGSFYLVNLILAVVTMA
- Sequence (Q9Y5Y9 660-890 limits assumed): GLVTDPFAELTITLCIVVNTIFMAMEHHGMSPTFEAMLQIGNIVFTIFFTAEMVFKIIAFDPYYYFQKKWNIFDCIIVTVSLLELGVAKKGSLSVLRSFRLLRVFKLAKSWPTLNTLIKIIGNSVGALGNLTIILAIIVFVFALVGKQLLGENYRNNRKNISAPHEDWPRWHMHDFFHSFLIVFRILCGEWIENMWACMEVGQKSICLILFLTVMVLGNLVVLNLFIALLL
- Sequence (Q9Y5Y9 1148-1722 limits assumed): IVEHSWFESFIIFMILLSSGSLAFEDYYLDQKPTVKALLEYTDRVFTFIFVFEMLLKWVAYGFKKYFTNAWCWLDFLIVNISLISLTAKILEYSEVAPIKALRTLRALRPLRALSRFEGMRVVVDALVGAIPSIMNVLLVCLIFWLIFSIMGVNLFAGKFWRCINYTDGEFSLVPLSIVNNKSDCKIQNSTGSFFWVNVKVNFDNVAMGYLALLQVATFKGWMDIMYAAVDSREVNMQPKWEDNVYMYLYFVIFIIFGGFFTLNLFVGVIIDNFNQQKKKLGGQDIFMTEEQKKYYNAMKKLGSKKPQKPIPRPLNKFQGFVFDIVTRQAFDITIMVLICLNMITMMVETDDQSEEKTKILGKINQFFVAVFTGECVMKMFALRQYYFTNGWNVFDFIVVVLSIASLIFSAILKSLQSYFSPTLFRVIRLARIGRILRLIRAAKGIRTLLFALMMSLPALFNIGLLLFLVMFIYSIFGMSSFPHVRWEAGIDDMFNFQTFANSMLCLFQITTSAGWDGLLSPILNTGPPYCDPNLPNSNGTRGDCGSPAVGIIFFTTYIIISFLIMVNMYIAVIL
- assay_explanation: E-VIPR assay detecting and measuring NaV inhibition properties
- Assay type: cell-based
- cond: HEK cells expressing truncated human NaV 1.8; in the presence of human serum (compound numbers followed by *); read-out: IC50 in the E-VIPR Assay, performed in the presence of human serum
Collected IC50 values appear next to each entry.
readout_kind: IC50

>  <compound>
COc1c([C@H]2[C@@H](C)[C@@H](C)O[C@@H]2C(=O)Nc2ccnc(C(O)CO)c2)ccc(F)c1F (relative stereo) [Compound 719]

>  <test_target>
human NaV 1.8 (Homo sapiens, UniProt Q9Y5Y9)

>  <readout_kind>
IC50

>  <result>
≥ 1000 nM

$$$$
>  <compound>
COc1c([C@H]2C[C@@](C)(C(F)(F)F)O[C@@H]2C(=O)Nc2cc(C(O)CO)ncc2F)ccc(F)c1F (single isomer, unassigned) [Compound 690]

>  <test_target>
human NaV 1.8 (Homo sapiens, UniProt Q9Y5Y9)

>  <readout_kind>
IC50

>  <result>
≥ 1000 nM

$$$$
>  <compound>
C[C@H]1[C@@H](c2ccc(F)c(F)c2OC(F)F)[C@H](C(=O)Nc2cc(S(C)(=O)=O)c[n+]([O-])c2)O[C@@]1(C)C(F)(F)F (single isomer, unassigned) [Compound 88]

>  <test_target>
human NaV 1.8 (Homo sapiens, UniProt Q9Y5Y9)

>  <readout_kind>
IC50

>  <result>
100 to 1000 nM

$$$$
>  <compound>
C[C@H]1[C@@H](c2ccc(F)c(F)c2OC(F)F)[C@H](C(=O)Nc2cccnc2)O[C@@]1(C)C(F)(F)F (single isomer, unassigned) [Compound 65]

>  <test_target>
human NaV 1.8 (Homo sapiens, UniProt Q9Y5Y9)

>  <readout_kind>
IC50

>  <result>
10 to 100 nM

$$$$
>  <compound>
COc1cc(F)ccc1C1CC(C)(C(F)(F)F)OC1C(=O)Nc1ccnc(S(C)(=N)=O)c1 (stereo not drawn) [Compound 715]

>  <test_target>
human NaV 1.8 (Homo sapiens, UniProt Q9Y5Y9)

>  <readout_kind>
IC50

>  <result>
100 to 1000 nM

$$$$
>  <compound>
COc1c([C@@H]2[C@@H](C(=O)Nc3ccnc(C(C)O)c3)O[C@](C)(C(F)(F)F)[C@@H]2C)ccc(F)c1F (single isomer, unassigned) [Compound 531]

>  <test_target>
human NaV 1.8 (Homo sapiens, UniProt Q9Y5Y9)

>  <readout_kind>
IC50

>  <result>
≥ 1000 nM

$$$$

---

Collected pIC50 values appear next to each entry.
- test_target: human NaV 1.8 (Homo sapiens)
- assay_explanation: E-VIPR assay detecting and measuring NaV inhibition properties
- Type: cell-based
- cond: HEK cells expressing truncated human NaV 1.8; no human serum; read-out: IC50 in the E-VIPR Assay
pIC50: −log10 of the molar value.
readout_kind: pIC50

>  <compound>
COc1c([C@H]2[C@H](C(=O)Nc3cnc(C(N)=O)nc3)O[C@@](C)(C(F)(F)F)[C@H]2C)ccc(F)c1C(F)F (stereo in doubt) [Compound 173]

>  <result>
> 8.00

$$$$
>  <compound>
C[C@H]1[C@@H](c2ccc(F)c(F)c2OCCN2CCOCC2)[C@H](C(=O)Nc2cccnc2)O[C@@]1(C)C(F)(F)F [Compound 587]

>  <result>
7.00 to 8.00

$$$$
>  <compound>
COc1c([C@H]2[C@H](C(=O)NCC3CCOC3)O[C@@](C)(C(F)(F)F)[C@H]2C)ccc(F)c1F (some centres unmarked) [Compound 279]

>  <result>
≤ 6.00

$$$$
>  <compound>
COc1c([C@H]2[C@H](C(=O)Nc3ccnc(-n4ccnc4C)c3)O[C@@](C)(C(F)(F)F)[C@H]2C)ccc(F)c1F [Compound 316]

>  <result>
> 8.00

$$$$
>  <compound>
C[C@H]1[C@@H](c2ccc(F)c(F)c2O[C@H]2C[C@@H](O)C2)[C@H](C(=O)Nc2cncc(F)c2)O[C@@]1(C)C(F)(F)F [Compound 660]

>  <result>
7.00 to 8.00

$$$$
>  <compound>
C[C@@H]1CN(C)CC(=O)N1c1cc(NC(=O)[C@@H]2O[C@@](C)(C(F)(F)F)[C@@H](C)[C@H]2c2ccc(F)c(F)c2OCCO)ccn1 [Compound 653]

>  <result>
7.00 to 8.00

$$$$
>  <compound>
COc1c([C@H]2[C@H](C(=O)Nc3cnc4c(c3)CCC4O)O[C@@](C)(C(F)(F)F)[C@H]2C)ccc(F)c1F (single isomer, unassigned) [Compound 433]

>  <result>
6.00 to 7.00

$$$$
>  <compound>
COc1c([C@H]2[C@H](C(=O)Nc3ccnc(N4CCCN(C)CC4=O)c3)O[C@@](C)(C(F)(F)F)[C@H]2C)ccc(F)c1F [Compound 467]

>  <result>
7.00 to 8.00

$$$$
>  <compound>
CNS(=O)(=O)c1cc(NC(=O)C2OC(C)(C(F)(F)F)C(C)C2c2ccc(F)c(F)c2OC)ccn1 (single isomer, unassigned) [Compound 456]

>  <result>
> 8.00

$$$$
>  <compound>
COc1c([C@H]2[C@H](C(=O)Nc3ccnc(C(O)CO)c3)O[C@@](C)(C(F)(F)F)[C@H]2C)ccc(F)c1C (single isomer, unassigned) [Compound 135]

>  <result>
> 8.00

$$$$
>  <compound>
COc1cc(NC(=O)[C@@H]2O[C@@](C)(C(F)(F)F)[C@@H](C)[C@H]2c2ccc(F)c(F)c2OCCO)c(F)cn1 [Compound 570]

>  <result>
7.00 to 8.00

$$$$
>  <compound>
COc1c([C@H]2[C@H](C(=O)Nc3ccc(C(=O)N(C)S(C)(=O)=O)nc3)O[C@@](C)(C(F)(F)F)[C@H]2C)ccc(F)c1F [Compound 376]

>  <result>
7.00 to 8.00

$$$$
>  <compound>
CC(=O)N(C)c1cc(NC(=O)[C@@H]2O[C@@](C)(C(F)(F)F)[C@@H](C)[C@H]2c2ccc(F)c(F)c2OCCN2CC3(COC3)C2)ccn1 [Compound 637]

>  <result>
7.00 to 8.00

$$$$
>  <compound>
Cc1nn(CCO)cc1NC(=O)[C@@H]1O[C@@](C)(C(F)(F)F)[C@@H](C)[C@H]1c1ccc(F)c(F)c1OC(F)F (single isomer, unassigned) [Compound 76]

>  <result>
7.00 to 8.00

$$$$
>  <compound>
COc1nc(C(F)F)ccc1[C@@H]1[C@@H](C(=O)Nc2ccc(C(N)=O)nc2)O[C@](C)(C(F)(F)F)[C@@H]1C (stereo in doubt) [Compound 735]

>  <result>
≤ 6.00

$$$$
>  <compound>
COc1c([C@H]2[C@H](C(=O)Nc3ccnc([C@H](O)[C@@H](C)O)c3)O[C@@](C)(C(F)(F)F)[C@H]2C)ccc(F)c1F (single isomer, unassigned) [Compound 203]

>  <result>
> 8.00

$$$$
>  <compound>
Cc1nocc1NC(=O)[C@@H]1O[C@@](C)(C(F)(F)F)[C@@H](C)[C@H]1c1ccc(F)c(F)c1OC[C@@H](C)N1CC2(COC2)C1 [Compound 624]

>  <result>
6.00 to 7.00

$$$$
>  <compound>
COc1c([C@H]2[C@H](C(=O)Nc3ccnc(CN4CCOCC4)c3)O[C@@](C)(C(F)(F)F)[C@H]2C)ccc(F)c1F [Compound 181]

>  <result>
7.00 to 8.00

$$$$
>  <compound>
COc1c([C@H]2[C@H](C(=O)Nc3ccnc(N4C[C@@H](C)NCC4=O)c3)O[C@@](C)(C(F)(F)F)[C@H]2C)ccc(F)c1F [Compound 480]

>  <result>
> 8.00

$$$$
>  <compound>
Cc1c(F)ccc(C2C(C(=O)Nc3ccn(C)c(=O)c3)OC(C)(C(F)(F)F)C2C)c1OC(F)F (centres unmarked) [Compound 98]

>  <result>
> 8.00

$$$$
>  <compound>
COc1c([C@H]2[C@H](C(=O)NCCc3c(C)n[nH]c3C)O[C@@](C)(C(F)(F)F)[C@H]2C)ccc(F)c1F [Compound 285]

>  <result>
≤ 6.00

$$$$
>  <compound>
C[C@H]1[C@@H](c2ccc(F)c(F)c2OC(F)F)[C@H](C(=O)Nc2cncc(S(C)(=O)=O)c2)O[C@@]1(C)C(F)(F)F (single isomer, unassigned) [Compound 96]

>  <result>
> 8.00

$$$$
>  <compound>
C[C@H]1[C@@H](c2ccc(F)c(F)c2OCCO)[C@H](C(=O)Nc2ncnc3c2cnn3C(C)(C)C)O[C@@]1(C)C(F)(F)F [Compound 563]

>  <result>
≤ 6.00

$$$$
